tested on: SNB-75; experiment: NCI tumour cell line growth inhibition, 48 h
Calls of active or inactive are those of the source. No stated cut-off is given here; in the data, active = GI50 up to about 1.1 µM and inactive = higher. Starred links: 1 amine or outer side, 2 acyl side, 3 side chain; linkers in the order of their positions; H or OH if unused. Positions of bridges follow the written chain, without caps; N, C: chain ends. Non-standard residues stand in square brackets, D forms with d. Residues, ends and D or L forms follow the SMILES beside them. ξ: configuration not given here. X11 = CCC(C)C(N[*:1])C(O)CC(=O)O[C@H](C(=O)C(C)C(=O)[*:2])C(C)C; X10 = O=C([C@@H]1CC(O)CN1[*:1])[*:2]; NMeY = CN[C@@H](Cc1ccc(O)cc1)C(=O)O; ξNMeL = CNC(CC(C)C)C(=O)O; ξT = CC(O)C(N)C(=O)O
REPORTED_PROPERTY: GI50

# MOLECULE, GI50
records = [
    ("CN1CCN(Cc2nc3cccc4c3c([n+]2[O-])-c2ccccc2-4)CC1", "33 µM (inactive)"),
    ("C[C@@]12CCC(=O)C=C1CC[C@H]1C2=CC[C@]2(C)C1CC[C@@]2(C)O (some centres not stated)", "66.1 µM (inactive)"),
    ("Cc1ccc([N+](=O)[O-])cc1S(=O)(=O)Nc1ccc(C2=NN(c3ccc([N+](=O)[O-])cc3[N+](=O)[O-])C(c3ccccc3)C2)cc1 (configuration not stated)", "22.5 µM (inactive)"),
    ("CCOP(=O)(OCC)/C(C#N)=C/c1cc(O)ccc1O", "79.3 µM (inactive)"),
    ("O=C1/C(=C/c2cccs2)N=C(c2ccccc2)N1C1Nc2cc3c(cc2S1)NC(N1C(=O)/C(=C/c2cccs2)N=C1c1ccccc1)S3 (configuration not stated)", "25.4 µM (inactive)"),
    ("CC1=C2c3c(C)ccc4ccc(C)c(c34)C2(O)C(C)C1=O (configuration not stated)", "30.8 µM (inactive)"),
    ("COC1=C(Br)[C@H](O)[C@@]2(C=C1Br)CC(C(=O)NCCCOc1c(Br)cc(C(O)CNC(C)=O)cc1Br)=NO2 (some centres not stated)", "2.79 µM (inactive)"),
    ("CCN(CC)CCO/N=C1\\CC[C@H]2[C@@H]3CC=C4C[C@@H](O)CC[C@]4(C)[C@H]3CC[C@]12C", "26.4 µM (inactive)"),
]

Reading of GI50 for CN(CCN(C)CCN(C)C(=O)Cc1ccc(Cl)c(Cl)c1)CCN1CCCC1 with SNB-75: 28 µM (inactive)

Field GI50 (SNB-75), entry CCCCCCNC(=O)C1=C(C)NC(C)=C(C(=O)NCCCCCC)C1 : 51.9 µM (inactive)

Param item: O=C(NCCOC(=O)CCCCCCCCC(=O)OCCNC(=O)NC(=O)c1cn(Cc2ccccc2)c(=O)[nH]c1=O)NC(=O)c1cn(Cc2ccccc2)c(=O)[nH]c1=O ; param system: SNB-75; output GI50: > 100 µM (inactive)

The molecule O=C1C=CC(=O)c2c(O)nc(CBr)nc21 , tested on SNB-75, showed GI50 of > 100 µM (inactive)

Observed GI50 on SNB-75, entry CCC(C)C1NC(=O)C(NC(=O)C(CC(C)C)N(C)C(=O)[C@@H]2CC(O)CN2)C(C)OC(=O)[C@H](Cc2ccc(OC)cc2)N(C)C(=O)[C@@H]2CCCN2C(=O)[C@H](CC(C)C)NC(=O)C(C)C(=O)[C@H](C(C)C)OC(=O)CC1O (some centres not stated) (H-[X10][ξNMeL][ξT][X11]LP[NMeY](Me); ester 3-C) , equals 0.0106 µM (active)

Bench note, SNB-75: CONC(C)=O , GI50 reads > 100 µM (inactive)

The observed GI50 for CN1CCN=C1c1nnn(-c2ccc([N+](=O)[O-])cc2)c1-c1ccccc1 when tested with SNB-75 stands at > 100 µM (inactive)
